# ASSAY: Acute toxicity (rat)
# CONDITION_SET: in vivo, read-out: Acute Toxicity (rat) ID50
MEASURED_QUANTITY: LD50 (mg/kg)
Value expressed in mg/kg; do not type the unit.

c1ccc(C(CC2=NCCN2)c2ccccc2)cc1 [Compound A, 2-(2,2-diphenyl)ethylimidazoline] : 562

Read the next record carefully.
Ask: Find the recorded LD50 belonging to c1ccc(C(CC2=NCCN2)c2ccccn2)cc1 (centres unmarked) [Compound B] and report it.
Result: 867

Reference source for all entries: patent US4138491A
